System: Phakopsora pachyrhizi (strain containing the amino acid substitution F129L in the mitochondrial cytochrome b protein)
Measurement notes: Use example 2: protective control of soybean rust on soybeans (PHAKPA P6), inoculation six days after spraying
Assay type: in vivo
Experimental setup: % diseased leaf area on soybean, 16 ppm spray, inoculation six days after treatment, untreated controls usually >85 %
Rule for this label: Criterion met means PHAKPA Disease level (%) P6 at 16 ppm is less than 40%; Criterion not met means PHAKPA Disease level (%) P6 at 16 ppm is at least 40%.

[
  {
    "Compound": "CNC(=O)/C(=N/OC)c1ccccc1CO/N=C(\\C)C#Cc1cccc(Cl)c1",
    "Assigned label": "Criterion met"
  },
  {
    "Compound": "CNC(=O)/C(=N/OC)c1cccc(C)c1CO/N=C(\\C)C#Cc1ccc(Br)cc1",
    "Assigned label": "Criterion met"
  },
  {
    "Compound": "CNC(=O)/C(=N/OC)c1ccccc1CO/N=C(\\C)C#Cc1c(C2CC2)cccc1C(F)(F)F",
    "Assigned label": "Criterion not met"
  },
  {
    "Compound": "CO/N=C(/C(=O)OC)c1ccccc1CO/N=C(\\C)C#Cc1ccc(Cl)cc1C1CC1",
    "Assigned label": "Criterion not met"
  },
  {
    "Compound": "CO/N=C(/C(=O)OC)c1ccccc1CO/N=C(\\C)C#Cc1ccccc1OC(F)(F)F",
    "Assigned label": "Criterion not met"
  },
  {
    "Compound": "CO/N=C(/C(=O)OC)c1cccc(C)c1CO/N=C(\\C)C#Cc1ccc(F)cc1",
    "Assigned label": "Criterion met"
  },
  {
    "Compound": "CO/N=C(/C(=O)OC)c1ccccc1CO/N=C(\\C)C#Cc1ccc(Oc2ccc(F)cc2)cc1",
    "Assigned label": "Criterion not met"
  },
  {
    "Compound": "CO/N=C(/C(=O)OC)c1cccc(C)c1CO/N=C(\\C)C#Cc1ccc(F)c(C(=O)OC)c1",
    "Assigned label": "Criterion met"
  },
  {
    "Compound": "CNC(=O)/C(=N/OC)c1ccccc1CO/N=C(\\C)C#Cc1cccc(Br)c1",
    "Assigned label": "Criterion met"
  },
  {
    "Compound": "CO/N=C(/C(=O)OC)c1ccccc1CO/N=C(\\C)C#Cc1ccccc1Br",
    "Assigned label": "Criterion met"
  },
  {
    "Compound": "CO/N=C(/C(=O)OC)c1cccc(C)c1CO/N=C(\\C)C#Cc1ccc(F)cc1C(=O)OC [Example 125]",
    "Assigned label": "Criterion not met"
  },
  {
    "Compound": "CNC(=O)/C(=N/OC)c1cccc(C)c1CO/N=C(\\C)C#Cc1ccc(Cl)cc1",
    "Assigned label": "Criterion met"
  },
  {
    "Compound": "CO/N=C(/C(=O)OC)c1ccccc1CO/N=C(\\C)C#Cc1ccc(OC2CC2)cc1",
    "Assigned label": "Criterion not met"
  },
  {
    "Compound": "CNC(=O)/C(=N/OC)c1ccccc1CO/N=C(\\C)C#Cc1ccc(F)cc1",
    "Assigned label": "Criterion met"
  },
  {
    "Compound": "CO/N=C(/C(=O)OC)c1cccc(C)c1CO/N=C(\\C)C#Cc1ccc(OC(F)(F)F)cc1",
    "Assigned label": "Criterion not met"
  },
  {
    "Compound": "CNC(=O)/C(=N/OC)c1cccc(C)c1CO/N=C(\\C)C#Cc1ccccc1OC(F)(F)F",
    "Assigned label": "Criterion met"
  },
  {
    "Compound": "CO/N=C(/C(=O)OC)c1ccccc1CO/N=C(\\C)C#Cc1c(Cl)cccc1Cl",
    "Assigned label": "Criterion not met"
  }
]
